B1: TPR 5TU (parent)
chain: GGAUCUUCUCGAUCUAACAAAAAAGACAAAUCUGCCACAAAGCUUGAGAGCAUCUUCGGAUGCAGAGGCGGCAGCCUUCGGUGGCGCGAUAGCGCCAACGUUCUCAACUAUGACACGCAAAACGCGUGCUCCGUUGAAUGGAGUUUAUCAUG

Variants of: B1
protocol_summary: polymerase ribozyme fitness, log enrichment relative to wild type (log ratio); higher = more active; in vitro selection for triplet polymerase activity
Variants at the floor of the assay were thinned out.
quantity_measured: polymerase ribozyme fitness (log ratio)

>>> result("C18G G92C C129U A150U")
-3.54
>>> result("C131G G133U")
-3.77
>>> result("G58C C96U")
-1.02
>>> result("C85G U101G G128U")
-4.03
>>> result("C96G A122U")
-1.49
>>> result("A16G A97G U144G")
-0.0952
